Source of measurements: ChEMBL document CHEMBL3271978

The following compounds are shown together with reported Activity values.
# Organism: Rattus norvegicus
# experiment: Vasopressor activity in phenoxybenzamine-treated rat under urethane anesthesia
# Format: ADME, organism-based
# condition-details: in vivo
Positions of bridges follow the written chain, without caps; N, C: chain ends. Non-standard residues stand in square brackets, D forms with d. Residues, ends and D or L forms follow the SMILES beside them. hSer = N[C@@H](CCO)C(=O)O
State just the number; it will be interpreted in U/mg.

As a guide, the following entries are already answered.
CC[C@H](C)[C@@H]1NC(=O)[C@H](Cc2ccc(O)cc2)NC(=O)[C@@H](N)CSSC[C@@H](C(=O)N2CCC[C@H]2C(=O)N[C@@H](CC(C)C)C(=O)NCC(N)=O)NC(=O)[C@H](CC(N)=O)NC(=O)[C@H]([C@@H](C)O)NC1=O (H-CYITNCPLG-NH2; disulfide 1-6) :: 0.43
CC[C@H](C)[C@@H]1NC(=O)[C@H](Cc2ccc(O)cc2)NC(=O)[C@@H](N)CSSC[C@@H](C(=O)N2CCC[C@H]2C(=O)N[C@@H](CC(C)C)C(=O)NCC(N)=O)NC(=O)[C@H](CC(N)=O)NC(=O)[C@H](CCO)NC1=O (H-CYI[hSer]NCPLG-NH2; disulfide 1-6) :: 0.021
CC[C@H](C)[C@@H]1NC(=O)[C@H](Cc2ccc(O)cc2)NC(=O)[C@@H](N)CSSC[C@@H](C(=O)N2CCC[C@H]2C(=O)N[C@@H](CC(C)C)C(=O)NCC(N)=O)NC(=O)[C@H](CC(N)=O)NC(=O)[C@H](CC(N)=O)NC1=O (H-CYINNCPLG-NH2; disulfide 1-6) :: 0.12

// lookup Activity for CC[C@H](C)[C@@H]1NC(=O)[C@H](Cc2ccc(O)cc2)NC(=O)[C@@H](N)CSSC[C@@H](C(=O)N2CCC[C@H]2C(=O)N[C@@H](CC(C)C)C(=O)NCC(N)=O)NC(=O)[C@H](CC(N)=O)NC(=O)[C@H](CO)NC1=O (H-CYISNCPLG-NH2; disulfide 1-6)
0.028
